Test system: HIV-1IIIB
Experimental protocol: Inhibition assay for the cytopathic effects of HIV-1 (syncytia formation) in C8166 cells
Measurement parameters: CC50 in C8166 / EC50 against HIV-1
Readout name: TI (therapeutic index) = CC50/EC50

Please report the recorded TI (therapeutic index) = CC50/EC50 for COc1ccc2c(=O)c3c(O)cc4c(c3oc2c1O)C(C)(C)C(CO)O4 (stereo not shown) . >294.12

And what about the compound COc1c(O)cc2oc3cc(O)c(OC)c(OC)c3c(=O)c2c1O ? >31.50

And what about the compound Cc1cn([C@H]2C[C@H](N=[N+]=[N-])[C@@H](CO)O2)c(=O)[nH]c1=O [AZT, 3′-azido-3′-deoxythymidine, reference compound] ? 193,371.51

And what about the compound COc1cc2c(c3oc4c5c(ccc4c(=O)c13)OCO5)C=CC(C)(C)O2 ? >22.45

* * *

Tested on: HIV-1IIIB
Experimental protocol: Inhibition assay for the cytopathic effects of HIV-1 (syncytia formation) in C8166 cells
Measurement parameters: Human immunodeficiency virus 1, C8166, 72 h, read-out: EC50 (50% effective concentration), anti-HIV-1
Method: All isolated xanthones 1–12 were assessed for their anti-HIV reverse transcriptase (RT) effects according to the inhibition assay for the cytopathic activities of HIV-1 (EC50) as well as the cytotoxic activities assay against C8166 cell line (CC50) according to MTT methods. […] Cytotoxicity against C8166 cells (CC50) was assessed using the MTT method, and anti-HIV-1 activity was evaluated by the inhibition assay for the cytopathic effects of HIV-1 (EC50). […]
pEC50: −log10 of the molar value.
Quick rule: pEC50 of at least 6 means YES, below that means NO.

Textbook exercise: given the entry CC(C)=CCC/C(C)=C/Cc1c(O)c(CC=C(C)C)c(O)c2c(=O)c3c(O)ccc(O)c3oc12 [Compound 5] , state whether its pEC50 is greater than or equal to 6. NO

And what about the molecule COc1cc(O)c2c(=O)c3c(OC)c(OC)c(O)cc3oc2c1 [Compound 10] ? NO

And what about the molecule COc1cc2oc3c(O)ccc(OC)c3c(=O)c2c(O)c1OC [Compound 11] ? NO

And what about the molecule Cc1cn([C@H]2C[C@H](N=[N+]=[N-])[C@@H](CO)O2)c(=O)[nH]c1=O [AZT, 3′-azido-3′-deoxythymidine, reference compound] ? YES

And what about the molecule COc1c(O)cc2oc3ccc(O)c(OC)c3c(=O)c2c1OC [Compound 9] ? NO

And what about the molecule C=C(C)C(O)CCC(C)=CCc1c(O)c(CC=C(C)C)c(O)c2c(=O)c3cc(O)ccc3oc12 (centres unmarked) [Compound 1, Cratocochinone A] ? YES

And what about the molecule COc1c(O)cc2oc3cc(O)c(OC)c(OC)c3c(=O)c2c1O [Compound 12] ? NO

* * *

System: HIV-1IIIB
Experimental protocol: Inhibition assay for the cytopathic effects of HIV-1 (syncytia formation) in C8166 cells
Measurement parameters: Human immunodeficiency virus 1, C8166, 72 h, read-out: EC50 (50% effective concentration), anti-HIV-1
Exercise: for every item that follows, state its recorded EC50.

Please report the recorded EC50 for C[C@@H]1Oc2cc(O)c3c(=O)c4cc(O)c(O)c(O)c4oc3c2C1(C)C [Compound 7, 2-deprenyl-7-hydroxy-rheediaxanthone] . 4.16 µM

And what about the compound COc1cc2c(c3oc4c5c(ccc4c(=O)c13)OCO5)C=CC(C)(C)O2 ? 8.91 µM

And what about the compound COc1ccc2c(=O)c3cc(O)c(OC)c(O)c3oc2c1OC ? 4.07 µM

And what about the compound COc1ccc2c(=O)c3c(OC)c(OC)c(O)cc3oc2c1O ? 1.89 µM

And what about the compound CC1(C)c2c(cc(O)c3c(=O)c4ccc(O)c(O)c4oc23)O[C@H]1CO ? 3.08 µM

Where do these numbers come from? They come from paper PMC10458312.
